Each entry below carries its reported cell viability.
# System: SEM cells
# Protocol: cell viability relative to DMSO control; higher = less cytotoxic
# Experimental Setup: HPLM + 10% dialyzed FBS; 48 h; 0.000781 µM

Test Smiles: CC1(C)CCC(C)(C)c2cc(NC(=O)c3ccc(C(=O)O)cc3)ccc21
cell viability, %: 88.1
//
Test Smiles: NC(=O)c1nnn(Cc2cc(Cl)c(C(=O)c3ccc(Cl)cc3)c(Cl)c2)c1N
cell viability, %: 112
//
Test Smiles: COc1cc2c(cc1OC)CN(CCc1ccc(NC(=O)c3cccc4c(=O)c5cccc(OC)c5[nH]c34)cc1)CC2
cell viability, %: 84.4
//
Test Smiles: CC1=CC/2=C(C=C1C)N(C[C@@H](O)[C@@H](O)[C@@H](O)CO)C/3=N/C(=O)NC(=O)C3=N2
cell viability, %: 117
//
Test Smiles: CN(C)CCc1c[nH]c2ccc(Cn3cncn3)cc12
cell viability, %: 76.1
//
Test Smiles: CN(C)c1ccc(-c2nc3c(N4CCN(CC(=O)Nc5nccs5)CC4)c(Cl)cnc3[nH]2)cc1
cell viability, %: 129
//
Test Smiles: O=C1c2ccccc2-c2n[nH]c3cccc1c23
cell viability, %: 82.9

* * *

# Tested on: SEM cells
# Protocol: cell viability relative to DMSO control; higher = less cytotoxic
# Experimental Setup: RPMI 5 mM glucose + 10% FBS; 48 h; 0.00234 µM

Molecule: COc1cccc(N(C)C(=S)Oc2ccc3c(c2)CCCC3)n1
cell viability (%): 83
//
Molecule: CN1CCN(c2ncc(-c3cc(Cl)cc(Cl)c3Cl)c(N)n2)CC1
cell viability (%): 117
//
Molecule: N#CC1(c2cccc(C(=O)Nc3cc(Oc4ccc5nc(NC(=O)C6CC6)sc5n4)ccc3F)c2Cl)CC1
cell viability (%): 89
//
Molecule: Clc1ccc(CCC(Cn2ccnc2)Sc2c(Cl)cccc2Cl)cc1 (centres undefined)
cell viability (%): 88
//
Molecule: Nc1ncnc2nc(-c3ccc(N4CCOCC4)nc3)cc(-c3cccc(Br)c3)c12
cell viability (%): 124
//
Molecule: Cc1noc(N[S+](=O)([O-])c2ccc(N)cc2)c1C
cell viability (%): 97.5
//
Molecule: COc1ccc([S+](=O)([O-])Nc2cc(-c3c(O)ccc4ccccc34)c(O)c3ccccc23)cc1
cell viability (%): 115
//
Molecule: N#Cc1c(N(CC(=O)[O-])CC(=O)[O-])sc(C(=O)[O-])c1CC(=O)[O-].O.O.O.O.O.O.O.[Sr+2].[Sr+2]
cell viability (%): 124
//
Molecule: O=c1oc2cc(O)ccc2s1
cell viability (%): 106

* * *

# Test system: NOMO1
# Protocol: cell viability relative to DMSO control; higher = less cytotoxic
# Experimental Setup: HPLM + 10% dialyzed FBS; 48 h; 0.000781 µM
// cell viability lookup, one value per entry

Compound: OC1=C(Cl)C=C(N\C2=C(\C(=O)NC2=O)C3=C(C=CC=C3)[N+]([O-])=O)C=C1
cell viability / %: 100

Compound: CCN(CC)CCCC(C)Nc1ccnc2cc(Cl)ccc12 (stereo not drawn)
cell viability / %: 112

Compound: CC[C@H](C)C(=O)O[C@H]1C[C@@H](C)\C=C2\C=C/[C@H](C)[C@H](CC[C@@H]3C[C@@H](O)CC(=O)O3)[C@@H]12
cell viability / %: 95.9

Compound: O=C(NOCC1CC1)c1ccc(F)c(F)c1Nc1ccc(I)cc1Cl
cell viability / %: 97.2

Compound: CCn1c(C(=O)N(C2CC2)C2CC2)cc2c3c(ncn3C)c(Nc3cc(C)n(C)n3)nc21
cell viability / %: 90.4

Compound: NC(=O)c1nnn(Cc2cc(Cl)c(C(=O)c3ccc(Cl)cc3)c(Cl)c2)c1N
cell viability / %: 111

Compound: N#Cc1c(N(CC(=O)[O-])CC(=O)[O-])sc(C(=O)[O-])c1CC(=O)[O-].O.O.O.O.O.O.O.[Sr+2].[Sr+2]
cell viability / %: 113

Compound: CC(C)C[C@H](CC(=O)O)C(=O)N[C@@H](Cc1c[nH]c2ccccc12)C(=O)N[C@@H](C)c1ccccc1
cell viability / %: 122
